The following compounds are shown together with reported inhibition at 10 µM values.
# tested-on: B1R receptor of the rat (rB1R) (Rattus norvegicus, UniProt P97583)
# Construct: expressed in transfected cells; host or cells: CHO K1 cells (Chinese hamster ovary), stably transfected
# measurement-notes: Functional FLIPR Ca2+ assay on the bradykinin 1 receptor, rat (rB1R CHO K1 cells)
# Type: cell-based
# stated-conditions: test substance 10 μM; CHO K1 cells transfected with rat B1R gene; agonist Des-Arg9-bradykinin at EC80; % inhibition compared with maximum achievable inhibition; read-out: B1R antagonism, rat [10 μM] % inhibition
Report only the number, with the unit % understood.

Here's what some known entries look like.
> print(dat)
                                   compound  recorded.measurement
1  COc1cc(C)c(S(=O)(=O)N2CCCCC2CCC(=O)N2CCc3onc(-c4ccncc4)c3C2)c(C)c1 (stereo not shown)                    98
2  Cc1cccc(Cl)c1S(=O)(=O)N1CCCC[C@H]1COCC(=O)N1CCc2sc(CN3CCCCC3)cc2C1                   104
3  Cc1cccc(Cl)c1S(=O)(=O)N1CCCCC1CCCC(=O)N1CCc2sc(CN3CCN(C)CC3)cc2C1 (stereo not shown)                   103

Recorded inhibition at 10 µM (compound COc1cc(C)c(S(=O)(=O)N2c3ccccc3CCC2COCC(=O)N2CCc3sc(CN4CCN(C)CC4)cc3C2)c(C)c1 (stereo not shown) ): 102

Recorded inhibition at 10 µM (compound COc1cc(C)c(S(=O)(=O)N2c3ccccc3OCC2COCC(=O)N2CCc3sc(CN4CCN(C)CC4)cc3C2)c(C)c1 (stereo not shown) ): 103

Recorded inhibition at 10 µM (compound Cc1cc(S(=O)(=O)N2CCCCC2CCC(=O)N2CCc3sccc3C2c2cccc(C(F)(F)F)c2)c(C)cc1Cl (stereo not shown) ): 57

Recorded inhibition at 10 µM (compound COc1cc(C)c(S(=O)(=O)N2CCCCC2COCC(=O)N2CCc3sccc3C2c2ccccc2)c(C)c1 (stereo not shown) ): 98

----------
# tested-on: B1R receptor of the rat (rB1R) (Rattus norvegicus, UniProt P97583)
# Construct: expressed in transfected cells; host or cells: CHO K1 cells (Chinese hamster ovary), stably transfected
# measurement-notes: Functional FLIPR Ca2+ assay on the bradykinin 1 receptor, rat (rB1R CHO K1 cells)
# Assay type: cell-based
# stated-conditions: test substance 10 μM; CHO K1 cells transfected with rat B1R gene; agonist Des-Arg9-bradykinin at EC80; % inhibition compared with maximum achievable inhibition; read-out: B1R antagonism, rat [10 μM] % inhibition
measurement-kind: inhibition at 10 µM (%)
Report only the number, with the unit % understood.

Recorded inhibition at 10 µM (compound COc1cc(C)c(S(=O)(=O)N(CCOCC(=O)N2CCc3[nH]cnc3C2c2ccccc2)c2ccccc2)c(C)c1 (stereo not shown) ): 97

----------
# tested-on: human B1R receptor (hB1R) (Homo sapiens)
# Construct: expressed in transfected cells; host or cells: CHO K1 cells (Chinese hamster ovary), stably transfected
# Sequence (P46663 1-353): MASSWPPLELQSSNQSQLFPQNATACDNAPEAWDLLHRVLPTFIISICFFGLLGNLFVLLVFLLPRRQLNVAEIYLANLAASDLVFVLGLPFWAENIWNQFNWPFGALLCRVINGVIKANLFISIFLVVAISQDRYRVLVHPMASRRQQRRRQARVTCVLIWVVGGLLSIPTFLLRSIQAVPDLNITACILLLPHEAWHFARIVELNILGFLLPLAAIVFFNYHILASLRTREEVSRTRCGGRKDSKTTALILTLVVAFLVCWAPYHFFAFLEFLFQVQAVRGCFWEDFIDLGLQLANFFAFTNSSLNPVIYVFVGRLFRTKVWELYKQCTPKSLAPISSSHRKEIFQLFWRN
# measurement-notes: Functional FLIPR Ca2+ assay on the bradykinin 1 receptor, human (hB1R CHO K1 cells)
# Format: cell-based
# stated-conditions: test substance 10 μM; CHO K1 cells transfected with human B1R gene; agonist Lys-Des-Arg9-bradykinin at EC80; % inhibition compared with maximum achievable inhibition; read-out: B1R antagonism, human (10 μM] % inhibition
The following compounds are shown together with reported inhibition at 10 µM values.
Note to self: number, then unit, no commentary.

Recorded inhibition at 10 µM (compound COc1cc(C)c(S(=O)(=O)N2CCCCC2CCCC(=O)N2CCc3nc(-c4ccncc4)sc3C2)c(C)c1 (stereo not drawn) ): 96%

Recorded inhibition at 10 µM (compound COc1cc(C)c(S(=O)(=O)N(C)CCOCC(=O)N2CCc3sc(CN4CCN(C)CC4)cc3C2)c(C)c1 ): 100%

Recorded inhibition at 10 µM (compound COc1cc(C)c(S(=O)(=O)N2CCCCC2CCCC(=O)N2CCc3sc(CN4CCN(C)CC4)cc3C2)c(C)c1 (stereo not drawn) ): 100%

Recorded inhibition at 10 µM (compound COc1cc(C)c(S(=O)(=O)N2CCCCC2COCC(=O)N2CCc3onc(-c4ccc(F)cc4)c3C2)c(C)c1 (stereo not drawn) ): 86%

Recorded inhibition at 10 µM (compound COc1cc(C)c(S(=O)(=O)N2CCCCC2CCC(=O)N2CCc3onc(-c4ccncc4)c3C2)c(C)c1 (stereo not drawn) ): 46%

Recorded inhibition at 10 µM (compound COc1cc(C)c(S(=O)(=O)N2CCCCC2CCCC(=O)N2CCc3nc(Cc4ccncc4)sc3C2)c(C)c1 (stereo not drawn) ): 99%

Recorded inhibition at 10 µM (compound O=C(C[C@@H](NS(=O)(=O)c1ccc2ccccc2c1)c1ccccc1)N1CCc2sc(CN3CCCCC3)cc2C1 ): 97%

Recorded inhibition at 10 µM (compound Cc1cc(S(=O)(=O)N2CCCCC2CCC(=O)N2CCc3sccc3C2c2cccc(F)c2)c(C)cc1Cl (stereo not drawn) ): 41%

----------
# tested-on: human B1R receptor (hB1R) (Homo sapiens)
# Construct: expressed in transfected cells; host or cells: CHO K1 cells (Chinese hamster ovary), stably transfected
# measurement-notes: Functional FLIPR Ca2+ assay on the bradykinin 1 receptor, human (hB1R CHO K1 cells)
# Type: cell-based
# stated-conditions: test substance 10 μM; CHO K1 cells transfected with human B1R gene; agonist Lys-Des-Arg9-bradykinin at EC80; % inhibition compared with maximum achievable inhibition; read-out: B1R antagonism, human (10 μM] % inhibition
measurement-kind: inhibition at 10 µM (%)
Report only the number, with the unit % understood.

> print(dat)
                                   compound  recorded.measurement
1  Cc1ccc(C2c3ccsc3CCN2C(=O)C[C@@H](NS(=O)(=O)c2ccc3ccccc3c2)c2ccccc2)cc1 (stereo partly drawn)                    11

human B1R receptor (hB1R) (Homo sapiens) data for COc1cc(C)c(S(=O)(=O)N(C)CCOCC(=O)N2CCc3sc(CN4CCCCC4)cc3C2)c(C)c1 ; its inhibition at 10 µM: 100

human B1R receptor (hB1R) (Homo sapiens) data for COc1cc(C)c(S(=O)(=O)N2CCC[C@H]2COCC(=O)N2CCc3sc(CN4CCCCC4)cc3C2)c(C)c1 ; its inhibition at 10 µM: 99

human B1R receptor (hB1R) (Homo sapiens) data for O=C(CC1CCCCN1S(=O)(=O)c1cccc(C(F)(F)F)c1)N1CCc2nc(Cc3ccncc3)sc2C1 (stereo not drawn) ; its inhibition at 10 µM: 51

----------
# tested-on: B1R receptor of the rat (rB1R) (Rattus norvegicus, UniProt P97583)
# Construct: expressed in transfected cells; host or cells: CHO K1 cells (Chinese hamster ovary), stably transfected
# Sequence (P97583 1-337): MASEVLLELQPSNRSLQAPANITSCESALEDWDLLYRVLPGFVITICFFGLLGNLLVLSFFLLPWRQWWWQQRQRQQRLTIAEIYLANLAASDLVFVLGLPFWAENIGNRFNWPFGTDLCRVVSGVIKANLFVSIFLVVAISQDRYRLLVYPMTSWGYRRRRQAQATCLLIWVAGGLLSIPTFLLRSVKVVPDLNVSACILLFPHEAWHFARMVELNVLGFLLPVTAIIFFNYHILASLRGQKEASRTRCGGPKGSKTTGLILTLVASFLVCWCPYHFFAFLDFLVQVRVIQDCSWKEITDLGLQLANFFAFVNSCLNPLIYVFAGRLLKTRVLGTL
# measurement-notes: Functional FLIPR Ca2+ assay on the bradykinin 1 receptor, rat (rB1R CHO K1 cells)
# Assay type: cell-based
# stated-conditions: test substance 10 μM; CHO K1 cells transfected with rat B1R gene; agonist Des-Arg9-bradykinin at EC80; % inhibition compared with maximum achievable inhibition; read-out: B1R antagonism, rat [10 μM] % inhibition
y means recorded inhibition at 10 µM is 90% or above; n means it is below 90%.

Does O=C(C[C@@H](NS(=O)(=O)c1ccc2ccccc2c1)c1ccccc1)N1CCc2onc(CN3CCCCC3)c2C1 have a reported inhibition at 10 µM of at least 90%?
n

Does COc1cc(C)c(S(=O)(=O)N2CCC[C@H]2COCC(=O)N2CCc3sc(CN4CCCCC4)cc3C2)c(C)c1 have a reported inhibition at 10 µM of at least 90%?
y

The measurements presented in this section are drawn from patent US8268814B2.
